assay: Pharmacokinetics in male Sprague Dawley rats (IV and oral); assay type: in vivo, rat; details: male, Sprague Dawley, rat, plasma, po, 3.2 mg/kg, rats, oral administration; read-out: apparent oral bioavailability
observable: bioavailability

// query Please give measured bioavailability of the following entry: O=C(Nc1ccc(Cl)cc1)N1CCN(c2ccc3nncn3n2)CC1
// result 24 to 43%

###

experiment: In vitro plasma/blood stability and whole blood-to-plasma ratio; assay type: in vitro ADME, rat; conditions: male, Sprague Dawley, fresh heparinized whole blood; rat blood, 37° C.; read-out: apparent in vitro whole blood to plasma partitioning ratio (B/P)
observable: blood plasma ratio at 500 ng/mL
In your answer, state the number alone without any accompanying words.

// query Please give measured blood plasma ratio at 500 ng/mL of the following entry: O=C(Nc1ccc(Cl)cc1)N1CCN(c2ccc3nncn3n2)CC1
// result 1.1
